Listed compounds paired with reported INHIBITION
- Tested on: Plasmodium berghei
- Protocol text: Screen against P. berghei liver stage (PbLuc), transformed with Luciferase, at 10uM
- Type: functional, HepG2
- Measurement parameters: tested at 10 uM
Screen size: about 69,000 compounds; about 8,600 (12%) showed an effect of 50% or more. Only a selection was taken, and strong results are over-represented in it overall.
Write the answer as a number in %, unit excluded.

Kindly note: Plasmodium berghei, Cc1nc(C2CCCN(C(=O)CCn3ccccc3=O)C2)no1 (configuration not stated) , INHIBITION value reported: 29.7

INHIBITION of CC(C)S(=O)(=O)N1C[C@@H](O)[C@H](N(C)Cc2ccc(F)cc2)C1 , assay on Plasmodium berghei, is 30.75

INHIBITION of O=C(Cc1ccc(F)cc1)NCCNCC1CNc2ccnn2C1 (configuration not stated) , assay on Plasmodium berghei, is 19.7

Reference for the values: ChEMBL document CHEMBL4513216
